measured.quantity: melting point

>>> df
                                    compound         result
 0  CC(C)n1nc(-c2c(-c3ccccc3)nn3ccc(N4CCN(Cc5ccccc5)CC4)cc23)ccc1=O  136 to 138 °C
 1  O=C1N[C@H](Cc2ccc(C(F)(F)F)cc2)[C@H](c2ccccc2F)O1 (racemic)  146 to 147 °C
 2  C=CCC(CO)(NC)c1ccc(Cl)c(Cl)c1 (stereo not given)  78 to 78.5 °C
 3  C[C@H]1CC[C@H]2C(C)(C)[C@@H](O)CC[C@]23Oc2c(c(O)cc4c2CN(C)C4=O)C[C@]13C  205 to 210 °C
 4  COC(=O)c1cc(S(=O)(=O)c2ccc(C)cc2)cc2c1OC(c1ccc(OC)cc1)(c1ccc(OC)cc1)O2    79 to 82 °C
 5  O=[N+]([O-])c1cnc(Sc2nnc(O)n2C2CCCCC2)s1  237 to 239 °C
 6  c1ccc(-c2noc(COc3ccc(CCCn4ccnc4)cc3)n2)cc1  124 to 125 °C
 7  O=C1C(=O)c2ccccc2C2=C1SCC1(CCN(C(=O)c3ccco3)CC1)O2         165 °C
 8  COC(=O)Cc1c(C)n(Cc2ccc(Cl)cc2)c2ccc(OCc3ccc4ccccc4n3)cc12  132 to 134 °C
 9  COc1ccc(C[C@H]2C3=C(CCCC3)CCN2C(C)=O)cc1  80 to 81.5 °C
10  COc1cc(Nc2ncc(-c3ccccc3C(=O)O)o2)ccc1-c1cnco1  271 to 274 °C
11  Cc1ccccc1CC(=NC#N)NC(NC(=O)CCCCc1ccccc1)C(C)(C)C (stereo not given)  151 to 152 °C
12  CN1C2CCC1CC(c1ccc3ccccc3c1)C2 (stereo not given)    77 to 79 °C
13  CC1CCN(C(C#N)C2(c3ccc(Cl)c(Cl)c3)CCC2)CC1 (stereo not given)    76 to 78 °C
14  Cc1cccc(NC(=O)NC2N=C(C3CCCCC3)c3cccc(C)c3N(CC(=O)C3CCCCC3)C2=O)c1 (stereo not given)  159 to 170 °C
15             CCOC(=O)c1cnc2ccc(OCC)nc2c1Cl    61 to 64 °C
16    CCOC(=O)CCc1cc(OCOC)nn1Cc1ccc(Cl)cc1Cl    47 to 49 °C
17      CSc1nc(-c2ccc(Cl)cc2)nc(-c2ccccn2)n1         152 °C
18   Nc1nnc(-c2ccc(F)c(F)c2Nc2ccc(Br)cc2F)o1         245 °C
19  COc1cc(OC)c2c(=O)[nH]c(-c3ccc(OC)c(-c4ccc(C(=O)N(C)C)cc4C)n3)nc2c1  248 to 251 °C

---

measured.quantity: melting point

In [3]: df
Out[3]:
                                   compound         result
0          COc1cc2ncnc(Nc3cccc(Br)c3)c2cc1O         299 °C
1  COc1ccc(-c2cc(C(=O)Nc3ccccc3)c(=O)n(CC3CC3)n2)cc1         163 °C
2  COc1cn(-c2ccncc2)nc(-c2ccnn2-c2ccccc2)c1=O  195 to 197 °C
3  CCS(=O)CC(=O)Nc1c(C)cccc1C (stereo not given)  114 to 115 °C
4  CC(C)c1nc(-c2cc3cc(OCCNC[C@H](O)c4cccc(Cl)c4)ccc3o2)no1    84 to 87 °C
5  CC(C)NC(=O)c1c(I)cccc1C(=O)Nc1ccc(OCC(F)(F)F)nc1  220 to 225 °C
6  CCCCCCCCCCCCCCCCCCC(N=C(c1ccccc1)c1ccccc1)C(=O)OCC (stereo not given)    62 to 65 °C
7         Cc1nc2nc[nH]c2c2nc(-c3ccccc3)nn12         285 °C
8  CCOC(=O)c1cc(NC(=O)C(CS)Cc2ccc(Cl)cc2)c[nH]1 (stereo not given)  140 to 143 °C
9   O=C(c1ccc(O)nc1)N1CCN=C1Nc1c(Cl)cccc1Cl  256 to 258 °C

Reference source for all entries: a melting point compilation (Tetko et al.; mined from patent text by program, amines drawn as free bases though some values may be those of a salt)
